Every entry's value here was drawn from ChEMBL document CHEMBL1201862.

system: UACC-62; assay: NCI tumour cell line growth inhibition, 48 h
Active and inactive are the calls of the source. No stated cut-off is given here; in the data, active = GI50 up to about 1.1 µM and inactive = higher.
Observable: GI50

>>> result("Cc1c(Cc2ccccc2)n(COCCCO)c(=O)[nH]c1=O")
"> 100 µM (inactive)"
>>> result("COC(=O)C1(Cc2ccccc2)Cc2ccccc2C1O (stereo unspecified)")
"> 100 µM (inactive)"
>>> result("COc1ccc(NC(=S)c2ccc([N+](=O)[O-])o2)cc1")
"1.77 µM (inactive)"
>>> result("CSc1ccc(/C=C2\\N=C(c3ccccc3)N(c3nc4c(Cl)cc(Cl)cc4s3)C2=O)cc1")
"24.4 µM (inactive)"
>>> result("O=[N+]([O-])C1=Cc2c(O)ccc(O)c2C2OC=CC12 (stereo unspecified)")
"6.81 µM (inactive)"
>>> result("CCN1CC2=C(N=c3s/c(=C\\c4ccc(Cl)cc4)c(=O)n3C2c2ccc(Cl)cc2)/C(=C/c2ccc(Cl)cc2)C1 (stereo unspecified)")
"32.2 µM (inactive)"

====

test system: MDA-N; experiment: NCI tumour cell line growth inhibition, 48 h
Calls of active or inactive are those of the source. No stated cut-off is given here; in the data, active = GI50 up to about 1.1 µM and inactive = higher.
Labels: active, inactive

>>> class_name("Cn1cccc1-c1ccc(-c2ccc(CO)[se]2)[se]1")
"inactive"
>>> class_name("COc1cc(C2SC(=N)Nc3c2c(C)nn3C(=O)Cc2ccccc2)cc(OC)c1OC (centres undefined)")
"inactive"
>>> class_name("c1c[nH]c(CN2CCN(Cc3ncc[nH]3)CC2)n1")
"inactive"
>>> class_name("CSCC[C@H](NC(=O)[C@H](CC(C)C)NC(=O)[C@@H](Cc1ccccc1)NC(=O)CNC(=O)[C@@H](NC(=O)[C@H](C)NC(=O)[C@H](Cc1c[nH]c2ccccc12)NC(=O)[C@H](CCC(N)=O)NC(=O)[C@H](N)CC(N)=O)C(C)C)C(N)=O")
"inactive"
>>> class_name("CC(C)N(C(=O)C12C3(C(=O)C(C)(C)C)C4C5(C#N)C3C1(C(=O)C(C)(C)C)C5C42C(=O)C(C)(C)C)C(C)C (centres undefined)")
"inactive"
>>> class_name("Clc1ccc(-c2cn3c(nc4ccccc43)c(-c3ccccc3)n2)cc1")
"inactive"
>>> class_name("CN(C)c1cccc2c1C(=O)C=CC21CCc2ccc(N(C)C)c3c(N(C)C)ccc1c23 (centres undefined)")
"inactive"
>>> class_name("CCCC(=O)Nc1cc(/C=C/C(=O)N2C[C@H]3C[C@@]34C2=CC(=O)c2[nH]cc(C)c24)n(C)c1")
"active"
>>> class_name("O=[N+]([O-])C1=Cc2c(O)ccc(O)c2C2OC=CC12 (centres undefined)")
"inactive"
>>> class_name("Clc1sc(Cl)c2c1[C@H](Br)C[C@@H]2Cl")
"inactive"
>>> class_name("O=c1cc(N2CCCC2)[nH]c(=O)n1-c1ccc(Cl)cc1")
"inactive"
>>> class_name("O=C(O)CCC1C(=O)C2CCN1CC2 (centres undefined)")
"inactive"
>>> class_name("CC(C)(C)OC(=O)NCCNCCNc1ccccc1")
"inactive"
>>> class_name("NC(=O)NC(=O)c1cnccn1")
"inactive"
>>> class_name("O=C(Cn1c(C(=O)/C=C/c2ccc(Cl)c(Cl)c2)nc2ccccc21)c1ccccc1")
"inactive"
>>> class_name("c1ccc(-c2cc(-c3cc(-c4ccccc4)n(-c4ccccc4)n3)nn2-c2ccccc2)cc1")
"inactive"
>>> class_name("O=C(CNc1c(Cl)cccc1Cl)NC1C=Cc2ccc(S(=O)(=O)Nc3c(Cl)cccc3Cl)cc2C1=O (centres undefined)")
"inactive"
>>> class_name("N#C[C@H](c1ccccn1)c1nc2ccccc2nc1Cl")
"inactive"
>>> class_name("COC/C=C\\[C@]1(O)CCCC[C@@H]1CC(OC)OC")
"inactive"
>>> class_name("CCOC(=O)NC(Nc1ccc(F)c(F)c1)(C(=O)OCC)C(F)(F)F (centres undefined)")
"inactive"
>>> class_name("Cc1cc2nc3c(C(O)CO)nn(-c4ccccc4)c3nc2cc1C (centres undefined)")
"inactive"
>>> class_name("COc1ccc(C2C3CCc4ccccc4C3=NN2S(=O)(=O)c2cccc(C(=O)O)c2OC)cc1 (centres undefined)")
"inactive"
>>> class_name("CCOC(=O)c1cn(-c2ccc([N+](=O)[O-])cc2)c(=S)n2c1nc1ccccc12")
"inactive"
>>> class_name("COc1cc(/C=C2/CCCc3ccccc3C2=O)cc(OC)c1OC")
"inactive"
